Data provenance is patent US20030105278A1.

Parameter Activation %: see the listing below.
- tgt: human MCH receptor expressed from the open reading frame cDNA SEQ. ID. NO. 1 in 293-AEQ17 cells (human, UniProt Q99705 1-353)
- Sequence (Q99705 whole entry): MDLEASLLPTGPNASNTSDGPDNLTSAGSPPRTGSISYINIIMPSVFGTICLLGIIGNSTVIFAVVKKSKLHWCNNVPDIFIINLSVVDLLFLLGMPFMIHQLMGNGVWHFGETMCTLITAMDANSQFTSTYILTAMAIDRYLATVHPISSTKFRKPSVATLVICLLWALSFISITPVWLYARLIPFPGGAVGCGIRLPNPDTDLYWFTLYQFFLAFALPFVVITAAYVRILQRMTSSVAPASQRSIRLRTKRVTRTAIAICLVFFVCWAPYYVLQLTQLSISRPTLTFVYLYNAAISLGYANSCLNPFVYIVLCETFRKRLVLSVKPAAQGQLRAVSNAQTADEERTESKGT
- experimental-details: cell-based or functional assay
Bridges are numbered along the chain shown (N, C = ends). Where no end group is shown, it is not given here.

[
  {
    "binder": "RCMLGRVYRPC-NH2 (disulfide 2-11 (inferred), ID; NO; 7 peptide; MCH position numbering) [MCH analog SEQ. ID. NO. 39 (position 6: Arg)]",
    "Activation % (%)": 106
  },
  {
    "binder": "XCMLGRVYRPC (Ac-D-Arg at position 6; C-terminal amide, Cys-Cys disulfide as in SEQ. ID. NO. 7, ID; NO; 7 peptide; MCH position numbering; 15 (D-Arg^6)) [MCH analog SEQ. ID. NO. 41 (position 6: Ac-D-Arg)]",
    "Activation % (%)": 86
  },
  {
    "binder": "Ac-CMLGRVYRPC-NH2 (disulfide 1-10; SMILES CSCC[C@@H]1NC(=O)[C@@H](NC(C)=O)CSSC[C@@H](C(N)=O)NC(=O)[C@@H]2CCCN2C(=O)[C@H](CCCNC(=N)N)NC(=O)[C@H](Cc2ccc(O)cc2)NC(=O)[C@H](C(C)C)NC(=O)[C@H](CCCNC(=N)N)NC(=O)CNC(=O)[C@H](CC(C)C)NC1=O, ID; NO; 7 peptide; MCH position numbering) [MCH analog SEQ. ID. NO. 38 (position 6: Ac)]",
    "Activation % (%)": 82
  },
  {
    "binder": "SCMLGRVYRPC (Ac-Ser at position 6 (N-terminal acetyl); C-terminal amide, Cys-Cys disulfide as in SEQ. ID. NO. 7, ID; NO; 7 peptide; MCH position numbering) [MCH analog SEQ. ID. NO. 35 (position 6: Ac-Ser)]",
    "Activation % (%)": 120
  }
]
